# measured on: NPC1-like intracellular cholesterol transporter 1 (Homo sapiens)
# Sequence (Q9UHC9 whole entry): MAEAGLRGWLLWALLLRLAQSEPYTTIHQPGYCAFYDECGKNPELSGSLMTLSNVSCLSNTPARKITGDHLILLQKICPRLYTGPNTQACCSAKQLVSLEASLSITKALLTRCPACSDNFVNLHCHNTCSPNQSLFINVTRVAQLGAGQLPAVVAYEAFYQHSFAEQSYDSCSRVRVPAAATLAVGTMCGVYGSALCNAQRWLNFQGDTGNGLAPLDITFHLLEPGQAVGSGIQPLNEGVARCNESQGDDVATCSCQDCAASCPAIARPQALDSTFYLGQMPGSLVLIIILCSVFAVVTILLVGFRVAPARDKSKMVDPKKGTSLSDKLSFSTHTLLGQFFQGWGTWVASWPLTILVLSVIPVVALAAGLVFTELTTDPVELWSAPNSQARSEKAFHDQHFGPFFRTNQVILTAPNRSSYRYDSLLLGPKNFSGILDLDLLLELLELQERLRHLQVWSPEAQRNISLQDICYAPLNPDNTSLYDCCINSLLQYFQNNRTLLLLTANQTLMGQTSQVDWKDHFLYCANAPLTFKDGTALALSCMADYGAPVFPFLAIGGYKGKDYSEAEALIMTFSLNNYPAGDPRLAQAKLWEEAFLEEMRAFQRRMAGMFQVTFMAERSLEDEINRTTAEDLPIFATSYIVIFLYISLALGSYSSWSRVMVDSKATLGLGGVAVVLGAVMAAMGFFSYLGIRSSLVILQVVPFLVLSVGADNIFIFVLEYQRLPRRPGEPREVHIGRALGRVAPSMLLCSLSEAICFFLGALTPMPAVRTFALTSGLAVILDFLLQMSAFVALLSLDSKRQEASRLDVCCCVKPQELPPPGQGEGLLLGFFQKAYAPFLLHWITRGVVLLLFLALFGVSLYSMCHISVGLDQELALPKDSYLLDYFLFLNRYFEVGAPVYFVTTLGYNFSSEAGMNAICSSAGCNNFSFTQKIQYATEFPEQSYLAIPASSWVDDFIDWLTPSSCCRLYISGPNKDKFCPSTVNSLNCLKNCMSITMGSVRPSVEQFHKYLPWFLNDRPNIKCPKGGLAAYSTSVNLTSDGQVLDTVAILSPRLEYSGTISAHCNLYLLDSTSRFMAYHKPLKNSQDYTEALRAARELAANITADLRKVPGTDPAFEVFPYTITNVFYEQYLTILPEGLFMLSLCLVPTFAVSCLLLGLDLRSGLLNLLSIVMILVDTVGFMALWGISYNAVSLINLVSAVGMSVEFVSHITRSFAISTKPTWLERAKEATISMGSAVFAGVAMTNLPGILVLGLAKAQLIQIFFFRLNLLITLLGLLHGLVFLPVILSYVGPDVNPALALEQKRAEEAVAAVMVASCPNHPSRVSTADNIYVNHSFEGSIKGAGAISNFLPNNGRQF
# experimental protocol: Inhibition of NPC1L1 (unknown origin) assessed as inhibition of cholesterol cellular uptake by BCA colorimetric assay
endpoint label: IC50 (nM)
The reply should be a number in nM, with the unit left off.

INPUT: Consider the molecule shown here: O=C1[C@H](CC[C@H](O)c2ccc(F)cc2)[C@@H](c2ccc(O)cc2)N1c1ccc(F)cc1 [EZETIMIBE] What is its recorded IC50?
OUTPUT: 370

Data provenance is ChEMBL document CHEMBL5126524.
